System: MS2 coat protein
experimental protocol: apparent KD of MS2 coat protein; designed switch direction (-1 OFF switch, 1 ON switch): 1; higher = weaker reporter binding
stated conditions: input ligand: FMN 200 uM
Exercise: for every item that follows, state its recorded apparent KD of MS2 coat protein.
A number alone suffices; assume nM.

Enquiry: # query: apparent KD of MS2 coat protein of entry ACAUGAGACCAAGGAUAUCUUGUACCUACAUGUGACAUGAGGAUCACCCAUGUGGUAAGUAUGAGGGAGAAGGUGGAGAUAUGU [Equivalence 25 - Jieux - Same State NG 2] (Eterna round: R96, puzzle: Same State NG 2)
Return: 26.2

Enquiry: Then GCUGCAAUUAACGCCUACAUGAGGAUCACCCAUGUAUGUAGGCAGGAUAUCGUUUGCAAAGCAAACGAGAAGGGCUGUAGUAGC [Mat - Same State NG 3 - JL Mod - D37] (Eterna round: R96, puzzle: Same State NG 3) ?
Return: 65.4

Enquiry: Then GUGCUCGUGUAAGGAUAUGCUUCCGUUUCGGCUGCAGAAGGUACUAUUAUACAUGAGGAUCACCCAUGUCUCUUUUGUUUGGUG [salish99_SSNG1_r04_909] (Eterna round: R96, puzzle: Same State NG 1) ?
Return: 89.1

Enquiry: Then UAAGUAUGUUGAGGAUAUUAUGUCAAGAGAGAUGACAUGAGGAUCACCCAUGUGUGAAGAGGAUUUAAGAAGGCAACAUACUUA [JR_SSNG2_Sub090] (Eterna round: R96, puzzle: Same State NG 2) ?
Return: 39.9

* * *

System: K4 kissing-loop RNA reporter;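 note: bound reporter read as fluorescence of individual clusters on recovered sequencing chips by microscopy, with normalized cluster intensities fitted with a binding model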
experimental protocol: apparent KD of K4 kissing-loop reporter; higher = weaker reporter binding
stated conditions: Eterna round: R107; input ligand: FMN 200 uM
Hi, to clarify the labels: yes covers apparent KD of K4 kissing-loop reporter from 200 nM upward, no covers anything below 200 nM.

Enquiry: In plain terms: is recorded apparent KD of K4 kissing-loop reporter at least 200 nM for AGCUCAGAGUGACUCGAUAAGAGUCACAAACGAGGACCGGUACGGCCGCCACUCGAAAUAACGAGAGUGAUGUUCUUGCUGAGCA [FiskerMod 7 - Jieux - Same State Tryptophan A] ?
Return: yes

Enquiry: Then AUGCGCGCGGCGGCCGCCACUCGCAUGAGAGUGAUGUUCUCACCGUGACCGUAAGGUCGCGGUGUGAGGACCGGGCCGGGCUGCG [#2 Same State - Tryptophan B Attempt #23 (HarryS)] ?
Return: no

Enquiry: Then UACAAACGUAGUGAUGUUACGUACUCUGAUACCAGACAACUCUAAGUCCCUUGGCAGCAGUCAUUUUGCUUAUUAUUUUCUCAAA [JR_ExcTheophyA_Sub018] ?
Return: no

Enquiry: Then `GCCGUACGCAUGGAUACCAGCUACUAGAGUGAUGUUCUAUGGCCCUGCCAAUGGAGCUGUAGCCCUUGGCAGCCAUGCGUACGGC` ?
Return: no

Enquiry: Then `GGCCGGAAGGCGGCCGCCACUCAGUGAUGUUGUGUGAAAGAAAAGAAAAGAAGAAAGAAAAGAAAGAGGACCGGGCCAAACGGCC` ?
Return: yes

Enquiry: Then CCGCCAUCGUCAGAUACCAGGCUGAUGGCGGUAACCGCCAAGCGAGUGAUGUUCGCAUCAGUCCCUUGGCAGCUGACGAAGACUG [#16 K4 Theophylline B Same State] ?
Return: no
